The reader will find reported glycan array binding signal (z-score) values listed item by item below.
Molecular target: GalNAc(a1-3)Gal
Assay: glycan array binding signal (z-score within array); higher = stronger binding
Settings: glycan notation: IUPAC condensed, linker removed
The full list was thinned out, with the strongest signals kept by preference.
READOUT NAME: glycan array binding signal (z-score)

[[record]]
binder = "Wzz (Escherichia coli) (protein) MRTWKFPSVRVMMRVENNNVSGQNHDPEQIDLIDLLVQLWRGKMTIIISVIVAIVLAIGYLAVAKEKWTSTAIITQPDVGQIAGYNNAMNVIYGQAAPKVSDLQETLIGRFSSAFSALAETLDNQEEPEKLTIEPSVKNQQLPLTVSYVGQTAEGAQMKLAQYIQQVDDKVNQELEKDLKDNIALGRKNLQDSLRTQEVVAQEQKDLRIRQIQEALQYANQAQVTKPQIQQTGEDITQDTLFLLGSEALESMIKHEATRPLVFSSNYYQTRQNLLDIDNLDVDKLDIHAYLYVMKPTLPIRRDSPKKAITLILAVLLGGMVGAGIVLGRNALRNYNAK"
test_result = -0.563

[[record]]
binder = "CBM32-5 (Clostridium perfringens) (protein) MGSSHHHHHHSSGLVPRGSHMASALPQGNMKATATSEHPDVGNEGLAKFAIDGKENTIWHTKYNPVEELPQSITLELGGSYEINKFTYLPRSGAKNGNITKYELHVSEDGNNFRKISEGNWDDSGSLKTLKFNSTKATHVKLVALEGVGGFASAAELNVFA"
test_result = 2.91

[[record]]
binder = "AidA (Burkholderia cenocepacia) (protein) MSRVTDVLVSFDTETILKKYPNPSKNPAAPTLIDWRYVYMVTNQDNVISGQAGGELDLKAQVGDLIRWRETSLSLGFENQVVFYKFIGNVGNDLISTPTPRVAEASIPVPNTSKPEVPTCQKVANYYWSSECLKVGRVTYHFQFQIIDRNCQSQGCFSWDPFISIHN"
test_result = 0.384

